target: T1, human MUC16 (mucin 16), endogenously expressed on cells (human); experiment: MSD electrochemiluminescence cell binding; RLU ratio OVCAR-3/SK-OV-3; Ab 1.9 nM
T1 construct: Endogenous MUC16 on OVCAR-3 / OVCAR3-Luc / PEO-1 / HPAC cells; also called hMUC16
# Ratio: anti-MUC16 Binding OVCAR-3/SK-OV-3 per record follows
Please respond with the number in ratio and leave the unit unwritten.

Q. For the binder H3M9529N (antibody, mouse IgG3, V domains shown, Mouse IgG3 constant region (H3M)) VH: QVQLQQWGAGLLKPSETLSLTCAVYGGSFSGFYWSWIRQPPGKGLEWIGEINHSGSAKYNPSLKNRVIISIDTSKNQFSLKLDSVTAADTAVYNCARQGWNFAIFDYWGQGTLVDVSS VL: DIVMTQSPDSLAVSLGGRATINCKSSQSVLHSSYNKDHLAWYQQRPGQPPKLLIYWASTRESGVPDRFSGSGSGTDFTLTISSLQAEDVAVYYCQQYNILPPTFGQGTRVEIK , give its reported Ratio: anti-MUC16 Binding OVCAR-3/SK-OV-3.
A. 143

Q. For the binder H1H9529N (antibody, human IgG1, V domains shown, Human IgG1 Fc version) VH: QVQLQQWGAGLLKPSETLSLTCAVYGGSFSGFYWSWIRQPPGKGLEWIGEINHSGSAKYNPSLKNRVIISIDTSKNQFSLKLDSVTAADTAVYNCARQGWNFAIFDYWGQGTLVDVSS VL: DIVMTQSPDSLAVSLGGRATINCKSSQSVLHSSYNKDHLAWYQQRPGQPPKLLIYWASTRESGVPDRFSGSGSGTDFTLTISSLQAEDVAVYYCQQYNILPPTFGQGTRVEIK , give its reported Ratio: anti-MUC16 Binding OVCAR-3/SK-OV-3.
A. 109

Q. For the binder H1H9528N (antibody, human IgG1, V domains shown, Human IgG1 Fc version) VH: QMQLQESGPGLVKPSETLSLTCTVSGGSISSYYWNWIRQPPGKGLEWIGYIYYSGNNFNPSLKSRVTISVDTSKNQFSLKLSSVTAADTAVYYCARAFHWNYEFDYWGQGTLVTVSS VL: EIVLTQSPGTLSLSPGERATLSCRASQSVSNNYLAWYQQKPGQAPRLLLYGASSRTTDIPDRFSGSGSGTDFTLTISRLEPEDFAVYYCQQYDNSPLTFGGGTKVEIR , give its reported Ratio: anti-MUC16 Binding OVCAR-3/SK-OV-3.
A. 41
